// provenance: the supplement of paper PMC10567573

B1: C8orf76 (parent)
chain: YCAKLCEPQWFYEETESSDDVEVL

Variants of: B1
protocol.notes: protein stability index of a GFP-peptide fusion (GPS, HEK-293T) (PSI 1-6); higher = more stable;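 also: lentivirally expressed fusions sorted by FACS into six bins by GFP to DsRed ratio, PSI derived from sequencing read proportions per bin multiplied by bin number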
stated.conditions: c terminus: a fixed tail appended
experimental.endpoint: protein stability index

1) D20N 2.05
2) A3W 1.95
3) Q9P 2.03
4) K4S 2.01
